molecular target: human JAK1 (a.a. 837-1142) (Homo sapiens, UniProt P23458); assay: In vitro JAK kinase assay (HTRF, phosphorylation of biotinylated peptide), JAK1; type: biochemical; conditions: Table A; 1 mM ATP; read-out: JAK1 IC50
Sequence (P23458 849-1154): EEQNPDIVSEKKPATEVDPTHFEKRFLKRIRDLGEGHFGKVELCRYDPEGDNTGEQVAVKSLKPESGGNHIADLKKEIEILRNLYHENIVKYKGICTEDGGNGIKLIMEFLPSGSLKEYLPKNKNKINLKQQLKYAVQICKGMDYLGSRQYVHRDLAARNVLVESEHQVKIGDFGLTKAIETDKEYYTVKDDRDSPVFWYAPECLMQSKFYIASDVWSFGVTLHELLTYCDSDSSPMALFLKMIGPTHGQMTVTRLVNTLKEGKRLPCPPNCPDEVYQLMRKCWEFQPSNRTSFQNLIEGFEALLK
Counter-ions that a name gives are not always drawn.
IC50: recorded values
MEASUREMENT_TYPE: IC50

>>> test_result("N#CC[C@]1(n2cc(-c3ncnc4[nH]ccc34)cn2)C[C@@H](N2CCN(C(=O)c3cccc(C(F)F)n3)CC2)C1 [Example 21a]")
"< 0.01 µM"
>>> test_result("N#CC[C@]1(n2cc(-c3ncnc4[nH]ccc34)cn2)C[C@@H](N2CCN(C(=O)c3ccc(C(F)(F)F)cc3F)CC2)C1 [Example 29, (trifluoroacetate) Salt]")
"0.01 to 0.025 µM"
>>> test_result("N#CC[C@]1(n2cc(-c3ncnc4[nH]ccc34)cn2)C[C@@H](N2CCN(C(=O)c3ccnc(C(F)(F)F)n3)CC2)C1")
"0.01 to 0.025 µM"
>>> test_result("N#CC[C@]1(n2cc(-c3ncnc4[nH]ccc34)cn2)C[C@@H](N2CCN(C(=O)c3cccc(C(F)(F)F)c3F)CC2)C1")
"< 0.01 µM"
>>> test_result("N#CC[C@]1(n2cc(-c3ncnc4[nH]ccc34)cn2)C[C@@H](N2CCN(Cc3cc(F)cc(C#N)c3)CC2)C1")
"< 0.01 µM"
>>> test_result("N#CC[C@]1(n2cc(-c3ncnc4[nH]ccc34)cn2)C[C@@H](N2CCN(C(=O)c3ccc(Cl)cc3)CC2)C1")
"< 0.01 µM"
>>> test_result("N#CC[C@]1(n2cc(-c3ncnc4[nH]ccc34)cn2)C[C@@H](N2CCN(C(=O)c3cccc(C(F)(F)F)n3)CC2)C1 [Example 20a]")
"< 0.01 µM"
>>> test_result("CC(C)c1nccc(C(=O)N2CCN([C@H]3C[C@@](CC#N)(n4cc(-c5ncnc6[nH]ccc56)cn4)C3)CC2)n1 [Example 24a]")
"0.01 to 0.025 µM"
>>> test_result("N#CC[C@]1(n2cc(-c3ncnc4[nH]ccc34)cn2)C[C@@H](N2CCN(C(=O)c3ccnc(C(F)(F)F)c3F)CC2)C1")
"0.01 to 0.025 µM"
>>> test_result("N#CC[C@]1(n2cc(-c3ncnc4[nH]ccc34)cn2)C[C@@H](N2CCN(C(=O)c3ccc(F)c(OC(F)(F)F)c3)CC2)C1")
"0.01 to 0.025 µM"
>>> test_result("N#CC[C@]1(n2cc(-c3ncnc4[nH]ccc34)cn2)C[C@@H](N2CCN(C(=O)c3ncc(C(F)(F)F)cc3F)CC2)C1")
"< 0.01 µM"
>>> test_result("N#CC[C@]1(n2cc(-c3ncnc4[nH]ccc34)cn2)C[C@@H](N2CCN(C(=O)c3cc(F)cc(F)c3)CC2)C1")
"< 0.01 µM"
>>> test_result("N#CC[C@]1(n2cc(-c3ncnc4[nH]ccc34)cn2)C[C@@H](N2CCN(C(=O)c3ccc(F)c(F)c3)CC2)C1 [Example 15a]")
"< 0.01 µM"

Each recorded value in this set is attributed to patent US10640506B2.
